The reported numbers originate from patent US10525055B2.

- run.description: Polymorph screening of solid state drug substances
- condition.set: Isopropanol; target conc. 100 mg/ml; RT
measurement.type: Visual observation RT

Examples from the recorded data:
C=C1CC[C@@]2(O)C3Cc4ccc(OC(=O)OCCCCCCCCCCCCCCCC)c5c4[C@@]2(CCN3CC2CC2)[C@H]1O5
Slurry
CCCCCCCCCCCCOC(=O)Oc1ccc2c3c1O[C@H]1C(=O)CC[C@@]4(O)C(C2)N(CC2CC2)CC[C@]314
Slurry
C=C1CC[C@@]2(O)C3Cc4ccc(OC(=O)NC(C)(C)C)c5c4[C@@]2(CCN3CC2CC2)[C@H]1O5
Slurry
CCCCCCCCCCOC(=O)Oc1ccc2c3c1O[C@H]1C(=O)CC[C@@]4(O)C(C2)N(CC2CC2)CC[C@]314
Slurry
C=C1CC[C@@]2(O)C3Cc4ccc(OC(=O)CCCCCCCCCCCCCCCCCCC)c5c4[C@@]2(CCN3CC2CC2)[C@H]1O5
Slurry

# per-item lookup of Visual observation RT; items listed below
1. C=C1CC[C@@]2(O)C3Cc4ccc(OC(=O)OCCCCCCCCCCCCCC)c5c4[C@@]2(CCN3CC2CC2)[C@H]1O5
2. C=C1CC[C@@]2(O)C3Cc4ccc(OC(=O)CCCCCCCCCCCCCCCCCCCCC)c5c4[C@@]2(CCN3CC2CC2)[C@H]1O5
3. CCCCCCCCCCCCCCCC(=O)Oc1ccc2c3c1O[C@H]1C(=O)CC[C@@]4(O)C(C2)N(CC2CC2)CC[C@]314
4. CCCCCCCCCCCCCCCCOC(=O)Oc1ccc2c3c1O[C@H]1C(=O)CC[C@@]4(O)C(C2)N(CC2CC2)CC[C@]314

1. Clear
2. Clear
3. Slurry
4. Slurry

---

- run.description: Plasma stability assay, dog plasma
- Type: in vitro ADME
- condition.set: 37° C., 2 μM, 15 min (as headed)
Doc: threshold 90% (exclusive). Items with % remaining at time point in minutes, 15 min beneath it return T; others return F.

CCCCCCCCCCCC(=O)OCN1C(=O)CCc2ccc(OCCCCN3CCN(c4cccc(Cl)c4Cl)CC3)cc21 [Aripiprazole lauroxil, reference compound]
F

Identify whether the compound C=C1CC[C@@]2(O)C3Cc4ccc(OC(=O)CCCCCCC/C=C/CCCCCCCC)c5c4[C@@]2(CCN3CC2CC2)[C@H]1O5 [Compound 15] records % remaining at time point in minutes, 15 min below 90%.
T

What about this compound? C=C1CC[C@@]2(O)C3Cc4ccc(OCOC(=O)OCCCCCCCCCCCC)c5c4[C@@]2(CCN3CC2CC2)[C@H]1O5 [Compound 24]
F

---

- tgt: UniProt P41145
measurement.type: pIC50
Give bare numbers, as −log10 of the molar value.

Consider the compound `C=C1CC[C@@]2(O)C3Cc4ccc(OC(=O)CCCCCCCCCCCCCCCCCCCCC)c5c4[C@@]2(CCN3CC2CC2)[C@H]1O5` and give its measured pIC50.
5.75

---

- run.description: Plasma stability assay, rat plasma
- Type: in vitro ADME
- condition.set: 37° C., 10 μM, 480 min
measurement.type: % remaining at time point in minutes, 480 min (%)
Give bare numbers, in %.

C=C1CC[C@@]2(O)C3Cc4ccc(OC(=O)OCCCCCCCCCCCCCCCC)c5c4[C@@]2(CCN3CC2CC2)[C@H]1O5
43.8
C=C1CC[C@@]2(O)C3Cc4ccc(OC(=O)OCCCCCCCC)c5c4[C@@]2(CCN3CC2CC2)[C@H]1O5
0
CCCCCCCCCCCCCCCCCC(=O)Oc1ccc2c3c1O[C@H]1C(=O)CC[C@@]4(O)C(C2)N(CC2CC2)CC[C@]314
45.6
C=C1CC[C@@]2(O)C3Cc4ccc(OCOC(=O)OCCCCCCCCCCCC)c5c4[C@@]2(CCN3CC2CC2)[C@H]1O5
8.2
C=C1CC[C@@]2(O)C3Cc4ccc(OC(=O)OCCCCCCCCCCCC)c5c4[C@@]2(CCN3CC2CC2)[C@H]1O5
4

# per-item lookup of % remaining at time point in minutes, 480 min; items listed below
1. CCCCCCCCCCOC(=O)Oc1ccc2c3c1O[C@H]1C(=O)CC[C@@]4(O)C(C2)N(CC2CC2)CC[C@]314
2. C=C1CC[C@@]2(O)C3Cc4ccc(OC(=O)OCCCCCCCCCC)c5c4[C@@]2(CCN3CC2CC2)[C@H]1O5

1. 0
2. 0.1

---

- run.description: Polymorph screening of solid state drug substances
- condition.set: Heptane; target conc. 100 mg/ml; 50 °C
measurement.type: Visual observation 50° C.

Examples from the recorded data:
C=C1CC[C@@]2(O)C3Cc4ccc(OC(=O)OCCCCCCCCCCCCCCCC)c5c4[C@@]2(CCN3CC2CC2)[C@H]1O5
Clear
CCCCCCCCCCOC(=O)Oc1ccc2c3c1O[C@H]1C(=O)CC[C@@]4(O)C(C2)N(CC2CC2)CC[C@]314
Slurry
CCCCCCCCCCCCOC(=O)Oc1ccc2c3c1O[C@H]1C(=O)CC[C@@]4(O)C(C2)N(CC2CC2)CC[C@]314
Clear
C=C1CC[C@@]2(O)C3Cc4ccc(OC(=O)OCCCCCCCCCCCCCC)c5c4[C@@]2(CCN3CC2CC2)[C@H]1O5
Clear
CCCCCCCCCCCCCCCCOC(=O)Oc1ccc2c3c1O[C@H]1C(=O)CC[C@@]4(O)C(C2)N(CC2CC2)CC[C@]314
Clear

Here is the next item to consider.
Consider the compound `C=C1CC[C@@]2(O)C3Cc4ccc(OC(=O)CCCCCCCCCCCCCCCCCCCCC)c5c4[C@@]2(CCN3CC2CC2)[C@H]1O5` and give its measured Visual observation 50° C..
Slurry

---

- run.description: Solubility determination in oil (cottonseed oil, sesame oil)
- condition.set: Sesame oil; heating temp. 60 °C, obs. temp. 40 °C
measurement.type: Approximate Solubility (mg/mL) in Excipient: Sesame oil

Examples from the recorded data:
CCCCC/C=C\C/C=C\CCCCCCCC(=O)Oc1ccc2c3c1O[C@H]1C(=O)CC[C@@]4(O)C(C2)N(CC2CC2)CC[C@]314
>406.3 mg/mL
C=C1CC[C@@]2(O)C3Cc4ccc(OC(=O)CCCCCCCCCCCCCCCCCCC)c5c4[C@@]2(CCN3CC2CC2)[C@H]1O5
202 to 404 mg/mL
CCCCCCCCCCCCCCCC(=O)Oc1ccc2c3c1O[C@H]1C(=O)CC[C@@]4(O)C(C2)N(CC2CC2)CC[C@]314
>394.8 mg/mL

# per-item lookup of Approximate Solubility (mg/mL) in Excipient: Sesame oil; items listed below
1. CC(C)(C)CC(=O)Oc1ccc2c3c1O[C@H]1C(=O)CC[C@@]4(O)C(C2)N(CC2CC2)CC[C@]314
2. CCCCCCCC/C=C\CCCCCCCCCCCC(=O)Oc1ccc2c3c1O[C@H]1C(=O)CC[C@@]4(O)C(C2)N(CC2CC2)CC[C@]314
3. C=C1CC[C@@]2(O)[C@H]3Cc4ccc(O)c5c4[C@@]2(CCN3CC2CC2)[C@H]1O5
4. CCCCCCCCCCCCCCCCOC(=O)Oc1ccc2c3c1O[C@H]1C(=O)CC[C@@]4(O)C(C2)N(CC2CC2)CC[C@]314

1. <25.8 mg/mL
2. >401.9 mg/mL
3. <25.5 mg/mL
4. 101 to 134.5 mg/mL

Consider the compound `C=C1CC[C@@]2(O)C3Cc4ccc(OC(=O)CCCCCCCCCCCCCCCCC)c5c4[C@@]2(CCN3CC2CC2)[C@H]1O5` and give its measured Approximate Solubility (mg/mL) in Excipient: Sesame oil.
>411.1 mg/mL

---

- run.description: Polymorph screening of solid state drug substances
- condition.set: Heptane; stirred 50 °C 72 hours, solids dried
measurement.type: XRPD results (Dried)

C=C1CC[C@@]2(O)C3Cc4ccc(OC(=O)CCCCCCCCCCCCCCCCCCC)c5c4[C@@]2(CCN3CC2CC2)[C@H]1O5
Pattern A
C=C1CC[C@@]2(O)C3Cc4ccc(OC(=O)OCCCCCCCCCCCCCC)c5c4[C@@]2(CCN3CC2CC2)[C@H]1O5
Pattern A
CCCCCCCCCCOC(=O)Oc1ccc2c3c1O[C@H]1C(=O)CC[C@@]4(O)C(C2)N(CC2CC2)CC[C@]314
Pattern A

---

- tgt: KOR (Homo sapiens, UniProt P41145)
- Construct: expressed in transfected cells; membranes prepared from them
- Sequence (P41145 whole entry): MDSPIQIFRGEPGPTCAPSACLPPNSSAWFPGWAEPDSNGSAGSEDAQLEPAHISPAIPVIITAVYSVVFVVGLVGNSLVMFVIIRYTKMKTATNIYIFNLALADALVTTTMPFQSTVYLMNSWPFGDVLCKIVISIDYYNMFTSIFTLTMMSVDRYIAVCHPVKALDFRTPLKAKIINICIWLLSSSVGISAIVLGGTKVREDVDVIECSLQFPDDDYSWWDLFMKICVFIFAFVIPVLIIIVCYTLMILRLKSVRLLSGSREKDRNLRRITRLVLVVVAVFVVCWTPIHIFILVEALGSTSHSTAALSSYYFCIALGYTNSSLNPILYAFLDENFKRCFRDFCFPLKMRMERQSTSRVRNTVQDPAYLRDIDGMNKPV
- run.description: Opioid receptor binding assay, KOR ([3H]Diprenorphine)
- condition.set: KOR, MaxDose 10000 nM
measurement.type: %Inh@MaxDose (%)
Numbers only, in %.

# per-item lookup of %Inh@MaxDose; items listed below
1. C=C1CC[C@@]2(O)C3Cc4ccc(OCOC(=O)OCCCCCCCCCCCCCC)c5c4[C@@]2(CCN3CC2CC2)[C@H]1O5
2. C=C1CC[C@@]2(O)C3Cc4ccc(OC(=O)OCCCCCCCCCCCCCCC)c5c4[C@@]2(CCN3CC2CC2)[C@H]1O5

[76.9, 80.1]

# per-item lookup of %Inh@MaxDose; items listed below
1. C=C1CC[C@@]2(O)C3Cc4ccc(OCOC(=O)CCCCCCCCCCC)c5c4[C@@]2(CCN3CC2CC2)[C@H]1O5
2. C=C1CC[C@@]2(O)C3Cc4ccc(OC(=O)OCCCCCCCCCCCCC)c5c4[C@@]2(CCN3CC2CC2)[C@H]1O5

99.2
97.6
